System: HOP-62 complex spheroids with HUVEC/MSC, viability
Protocol Details: Anticancer human tumor HOP-62 cell line growth inhibition [RAS];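 note: spheroids exposed to agents for seven days before readout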;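 for viability, T/C: 100% = DMSO vehicle control viability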
Measurement Conditions: second compound 0.316 µM; first compound 0.000949 µM; stronger effect = lower value
Experimental Readout: viability, T/C (%)
Dear colleague, please return just the value in %, with no unit written.

Compound	Display Unit	viability, T/C
CCc1c2c(nc3ccc(O)cc13)-c1cc3c(c(=O)n1C2)COC(=O)[C@]3(O)CC + C#Cc1c(F)ccc2cc(O)cc(-c3ncc4c(N5CC6CCC(C5)N6)nc(OCC56CCCN5CC(F)C6)nc4c3F)c12	%	59.1
CC1(C)CCC(Nc2ncc(C(F)(F)F)c(-c3c[nH]c4c(P(C)(C)=O)c(C#N)ccc34)n2)CN1 (centres undefined) + C#Cc1c(F)ccc2cc(O)cc(-c3ncc4c(N5CC6CCC(C5)N6)nc(OCC56CCCN5CC(F)C6)nc4c3F)c12	%	73.2
CCc1c2c(nc3ccc(O)cc13)-c1cc3c(c(=O)n1C2)COC(=O)[C@]3(O)CC + C=CC(=O)N1CCN(c2nc(OCC3CCCN3C)nc3c(F)c(-c4nc(N)cc(C)c4C(F)(F)F)c(Cl)cc23)C(C)C1	%	40.5

// moving on: another record for viability, T/C
Entry CC1(C)CCC(Nc2ncc(C(F)(F)F)c(-c3c[nH]c4c(P(C)(C)=O)c(C#N)ccc34)n2)CN1 (centres undefined) + C=CC(=O)N1CCN(c2nc(OCC3CCCN3C)nc3c(F)c(-c4nc(N)cc(C)c4C(F)(F)F)c(Cl)cc23)C(C)C1 ; viability, T/C = 48.8

---

Listed here are compounds together with their documented viability, T/C.
Test system: HOP-62 complex spheroids with HUVEC/MSC, viability
Protocol Details: Anticancer human tumor HOP-62 cell line growth inhibition [RAS];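 note: spheroids exposed to agents for seven days before readout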;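 for viability, T/C: 100% = DMSO vehicle control viability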
Measurement Conditions: second compound 10 µM; first compound 0.316 µM; stronger effect = lower value
Dear colleague, please return just the value in %, with no unit written.

Examples with answers:
Compound	Test Target	Display Unit	viability, T/C
C[C@@H](NC(=O)c1ncnc(N)c1Cl)c1ncc(C(=O)Nc2cc(C(F)(F)F)c(Cl)cn2)s1 + C#Cc1c(F)ccc2cc(O)cc(-c3ncc4c(N5CC6CCC(C5)N6)nc(OCC56CCCN5CC(F)C6)nc4c3F)c12	HOP-62 complex spheroids with HUVEC/MSC, viability	%	54.1
Cc1nc(N2CCC3(CC2)COC(C)C3N)c(CO)nc1Sc1ccnc(N)c1Cl (stereo not drawn) + C#Cc1c(F)ccc2cc(O)cc(-c3ncc4c(N5CC6CCC(C5)N6)nc(OCC56CCCN5CC(F)C6)nc4c3F)c12	HOP-62 complex spheroids with HUVEC/MSC, viability	%	19.5

Summary: CCN1CCN(Cc2ccc(Nc3ncc(F)c(-c4cc(F)c5nc(C)n(C(C)C)c5c4)n3)nc2)CC1 + C#Cc1c(F)ccc2cc(O)cc(-c3ncc4c(N5CC6CCC(C5)N6)nc(OCC56CCCN5CC(F)C6)nc4c3F)c12 , HOP-62 complex spheroids with HUVEC/MSC, viability, viability, T/C = 45.2

---

System: HOP-62 complex spheroids with HUVEC/MSC, viability
Protocol Details: Anticancer human tumor HOP-62 cell line growth inhibition [RAS];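 note: spheroids exposed to agents for seven days before readout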
Measurement Conditions: curve of first compound; second compound 0.000949 µM
The label y is reserved for IC50 strictly under 1000 nM; n covers values equal to or above it.

Compound	Category
CC(=O)OC12COC1CC(O)C1(C)C(=O)C(O)C3=C(C)C(OC(=O)C(O)C(NC(=O)OC(C)(C)C)c4ccccc4)CC(O)(C(OC(=O)c4ccccc4)C21)C3(C)C (stereo not given) + CCn1c(-c2cc(N3CCN(C)CC3)cnc2C(C)OC)c2c3cc(ccc31)-c1csc(n1)CC(NC(=O)C1CC1C)C(=O)N1CCCC(N1)C(=O)OCC(C)(C)C2	y

Problem: In the record for Cc1nc(N2CCC3(CC2)COC(C)C3N)c(CO)nc1Sc1ccnc(N)c1Cl (stereo not given) + CCn1c(-c2cc(N3CCN(C)CC3)cnc2C(C)OC)c2c3cc(ccc31)-c1csc(n1)CC(NC(=O)C1CC1C)C(=O)N1CCCC(N1)C(=O)OCC(C)(C)C2 , is IC50 less than 1000 nM?
Result: n

Problem: In the record for CCc1c2c(nc3ccc(O)cc13)-c1cc3c(c(=O)n1C2)COC(=O)[C@]3(O)CC + CCn1c(-c2cccnc2C(C)OC)c2c3cc(ccc31)N1CCOC(CC(NC(=O)C(C(C)C)N(C)C(=O)C3(F)CCN(C(=O)C#CC(C)(C)N(C)C)CC3)C(=O)N3CCCC(N3)C(=O)OCC(C)(C)C2)C1 , is IC50 less than 1000 nM?
Result: y

Problem: In the record for C=CC(=O)N1CCN(c2nc(OCC3CCCN3C)nc3c(F)c(-c4nc(N)cc(C)c4C(F)(F)F)c(Cl)cc23)C(C)C1 (stereo not given) + CCn1c(-c2cc(N3CCN(C)CC3)cnc2C(C)OC)c2c3cc(ccc31)-c1csc(n1)CC(NC(=O)C1CC1C)C(=O)N1CCCC(N1)C(=O)OCC(C)(C)C2 , is IC50 less than 1000 nM?
Result: n

Problem: In the record for CC(C)n1nc(-c2ccc3oc(N)nc3c2)c2c(N)ncnc21 + CCn1c(-c2cccnc2C(C)OC)c2c3cc(ccc31)N1CCOC(CC(NC(=O)C(C(C)C)N(C)C(=O)C3(F)CCN(C(=O)C#CC(C)(C)N(C)C)CC3)C(=O)N3CCCC(N3)C(=O)OCC(C)(C)C2)C1 , is IC50 less than 1000 nM?
Result: y

Problem: In the record for Nc1ccn(C2OC(CO)C(O)C2(F)F)c(=O)n1 (stereo not given) + CCn1c(-c2cccnc2C(C)OC)c2c3cc(ccc31)N1CCOC(CC(NC(=O)C(C(C)C)N(C)C(=O)C3(F)CCN(C(=O)C#CC(C)(C)N(C)C)CC3)C(=O)N3CCCC(N3)C(=O)OCC(C)(C)C2)C1 , is IC50 less than 1000 nM?
Result: y

Problem: In the record for C[C@@H](NC(=O)c1ncnc(N)c1Cl)c1ncc(C(=O)Nc2cc(C(F)(F)F)c(Cl)cn2)s1 + CCn1c(-c2cccnc2C(C)OC)c2c3cc(ccc31)N1CCOC(CC(NC(=O)C(C(C)C)N(C)C(=O)C3(F)CCN(C(=O)C#CC(C)(C)N(C)C)CC3)C(=O)N3CCCC(N3)C(=O)OCC(C)(C)C2)C1 , is IC50 less than 1000 nM?
Result: n
